Tested on: 991263-137-R1-J2-PDC complex spheroid viability;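 note: spheroids exposed to compounds for 7 days before readout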
Assay Procedure: Anticancer human tumor 991263-137-R1-J2-PDC patient-derived colon adenocarcinoma cell line growth inhibition [POLQ]
Protocol Conditions: curve of first compound; second compound 1 µM
pIC50: −log10 of the molar value.
Readout Label: pIC50

Illustrative cases are given below, each with its answer.
[[record]]
compound = "CNCc1ccc(-c2[nH]c3cc(F)cc4c3c2CCNC4=O)cc1 + Cc1cccc(N(C)C(=O)C2C(O)CCN2c2nc(C)cc(C(F)(F)F)c2C#N)c1"
readout_label = "pIC50"
assay_value = "< 5.00"

[[record]]
compound = "C=CCn1c(=O)c2cnc(Nc3ccc(N4CCN(C)CC4)cc3)nc2n1-c1cccc(C(C)(C)O)n1 + COC1C(OC(N)=O)C(O)C(Oc2ccc3c(O)c(NC(=O)c4ccc(O)c(CC=C(C)C)c4)c(=O)oc3c2C)OC1(C)C"
readout_label = "pIC50"
assay_value = "< 6.00"


Query: 991263-137-R1-J2-PDC complex spheroid viability / pIC50 / COc1cc2cc(C(=O)CCC(=O)O)sc2cc1OC + Nc1ccc(C#CCN(C(=O)Cc2ncc(C(F)(F)F)cc2C(F)(F)F)c2ccc(F)cc2)nn1 : value?
Reply: < 5.00

Query: 991263-137-R1-J2-PDC complex spheroid viability / pIC50 / CC(C)n1c(=O)n(C)c2cnc3cc(F)c(-c4ccc(OCCCN5CCCCC5)nc4)cc3c21 + COC1C(OC(N)=O)C(O)C(Oc2ccc3c(O)c(NC(=O)c4ccc(O)c(CC=C(C)C)c4)c(=O)oc3c2C)OC1(C)C : value?
Reply: < 5.00

Query: 991263-137-R1-J2-PDC complex spheroid viability / pIC50 / CCCS(=O)(=O)Nc1ccc(F)c(C(=O)c2c[nH]c3ncc(-c4ccc(Cl)cc4)cc23)c1F + COC1C(OC(N)=O)C(O)C(Oc2ccc3c(O)c(NC(=O)c4ccc(O)c(CC=C(C)C)c4)c(=O)oc3c2C)OC1(C)C : value?
Reply: < 5.00
